# Tested on: NCI-H226 lung
# METHOD NOTES: NCI-60 one-dose screen, 48 h (100 = growth as untreated, 0 = no growth, -100 = all killed)
# TEST CONDITIONS: 10 µM
This is part of a sample that, as a whole, favours compounds with a hit. Of some 83,000 tested, about 20% had one in any assay.

COMPOUND | growth [%]
COc1ccc2c(c1)C(CC(=O)NN)CCC2 (stereo unspecified) | 101
O=[N+]([O-])c1cccc(/C=N/NC(=S)NC23CC4CC(CC(C4)C2)C3)c1 | 48.4
CCOC(=O)c1sc2ncnc(Nc3ccc4c(cnn4C(=O)Nc4ccccc4)c3)c2c1C | 109
CCC(=O)OC1CCC2C3CCC(=O)OC3C(C)(CCC(=O)O)CC12C (stereo unspecified) | 60.1
CN1CCN(C2=Nc3ccccc3Oc3ccc(Cl)cc32)CC1 | 111
O=C1c2ccccc2C(=O)c2c1ccc(C(Br)Br)c2[N+](=O)[O-] | -1.88

----------
# Test system: SNB-75 CNS
# METHOD NOTES: NCI-60 one-dose screen, 48 h
# TEST CONDITIONS: 10 µM
The panel holds about 83,000 compounds, 20% with a hit somewhere; the sample as a whole holds those more often. Active and inactive are the calls of the source. The calls were made as follows: active = growth percent below 10; inactive = the rest.
Outcome codes: active, inactive

COMPOUND | GROUP
Cc1ccccc1N1C(=O)c2cc(S(N)(=O)=O)c(Cl)cc2NC1C (stereo not given) | inactive
COc1cc(-c2csc(NC(=O)Nc3ccc(Cl)c(C(F)(F)F)c3)n2)cc(OC)c1OC | active
CCC(c1ccc(OC)cc1)C(CC)c1ccc(O)c(CN2CCN(C)CC2)c1 (stereo not given) | inactive
c1ccc(CCCCc2ccc3ccccc3n2)cc1 | inactive
COc1ccc([C@H]2[C@H](C(=O)Nc3cccnc3)c3ccccc3C(=O)N2c2ccccc2)cc1 | inactive
COc1cc(NC(=O)C2=C(N3CCOCC3)/C(=C/c3ccc(Cl)cc3)CC2)cc(OC)c1OC | inactive
Clc1ccc(/C=C2\CCCC3C2=Nc2ccccc2NC3c2ccc(Cl)cc2)cc1 (stereo not given) | inactive
O=C(N/N=C/c1ccc([N+](=O)[O-])cc1)c1ccccc1Nc1cccc(C(F)(F)F)c1 | inactive
COc1ccc(C(c2ccc(OCCN(C)C)cc2)c2cc3ccccc3c3ccccc23)cc1 (stereo not given) | inactive
Cc1ccc(NCCN(C)CC(C)O)c2c(=O)c3ccccc3sc12 (stereo not given) | inactive

----------
# Tested on: KM12 colon
# METHOD NOTES: NCI-60 one-dose screen, 48 h (100 = growth as untreated, 0 = no growth, -100 = all killed)
# TEST CONDITIONS: 10 µM
Compounds without any hit were thinned out: in the full panel of roughly 83,000, 20% have a hit.

SMILES NOTATION | growth [%]
IC(I)I | 104
COc1cc(C(=O)/C(C)=C/c2c[nH]c3ccccc23)cc(OC)c1OC | 16.5
Nc1nccc(OCCO)n1 | 97.8
N#CCc1csc(Cc2ccccc2)n1 | 101
c1ccc2c(c1)Cc1ccccc1N2CCN1CCCCC1 | 95.3
CCc1c2c(nc3ccc(OC(=O)N4CCC(N5CCCCC5)CC4)cc13)-c1cc3c(c(=O)n1C2)COC(=O)[C@]3(O)CC | 53.1
COc1cc2cc(Oc3ccc(NC(=O)Nc4ccc(C(F)(F)F)cc4)cc3)c(C)nc2cc1OC | 64.4
Cc1cc(SC#N)cc(C(C)(C)C)c1O | 105
C=C(C)[C@@H]1CC[C@]2(COCCC#N)CC[C@]3(C)[C@H](CC[C@@H]4[C@@]5(C)Cc6c([nH]c7ccccc67)C(C)(C)[C@@H]5CC[C@]43C)[C@@H]12 | 95.8
CN1CCN(C2=Nc3ccccc3Oc3ccc(Cl)cc32)CC1 | 102
CC(=O)COc1ccc(Cl)cc1Cl | 113
